B1: Histone H1t, residues 44 to 112; numbered along this chain, P22492 (parent)
chain: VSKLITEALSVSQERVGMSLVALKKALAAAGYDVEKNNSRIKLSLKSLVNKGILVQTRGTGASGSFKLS

variants of: B1; test: abundance fitness (aPCA) (normalised: wild type 0, dead -1); higher = more abundant; growth selection in yeast, the domain comes from the species named; conditions: Homo sapiens
Catalogue of variants with associated abundance fitness
Enter the number alone.

>>> print(df.to_string())
   residue_change     assay_endpoint  experimental_result
0            I41W  abundance fitness               -0.113
1            L20S  abundance fitness               -0.561
2            L68T  abundance fitness               -0.067

abundance fitness recorded for this variant, `G59F` , is -0.074

Record `L48C` , field abundance fitness: -0.589

Memo: `V21D` , reported abundance fitness: 0

`G52L` has a reported abundance fitness of -0.212

For record `N38L` the listed abundance fitness is 0.048

So for `K42H` , the logged abundance fitness turned out to be -0.158

The value of abundance fitness measured for the variant `I41G` turned out to be -0.405
